target-of-assay: CYP1A1 (Homo sapiens, UniProt P35869)
Sequence (P35869 whole entry): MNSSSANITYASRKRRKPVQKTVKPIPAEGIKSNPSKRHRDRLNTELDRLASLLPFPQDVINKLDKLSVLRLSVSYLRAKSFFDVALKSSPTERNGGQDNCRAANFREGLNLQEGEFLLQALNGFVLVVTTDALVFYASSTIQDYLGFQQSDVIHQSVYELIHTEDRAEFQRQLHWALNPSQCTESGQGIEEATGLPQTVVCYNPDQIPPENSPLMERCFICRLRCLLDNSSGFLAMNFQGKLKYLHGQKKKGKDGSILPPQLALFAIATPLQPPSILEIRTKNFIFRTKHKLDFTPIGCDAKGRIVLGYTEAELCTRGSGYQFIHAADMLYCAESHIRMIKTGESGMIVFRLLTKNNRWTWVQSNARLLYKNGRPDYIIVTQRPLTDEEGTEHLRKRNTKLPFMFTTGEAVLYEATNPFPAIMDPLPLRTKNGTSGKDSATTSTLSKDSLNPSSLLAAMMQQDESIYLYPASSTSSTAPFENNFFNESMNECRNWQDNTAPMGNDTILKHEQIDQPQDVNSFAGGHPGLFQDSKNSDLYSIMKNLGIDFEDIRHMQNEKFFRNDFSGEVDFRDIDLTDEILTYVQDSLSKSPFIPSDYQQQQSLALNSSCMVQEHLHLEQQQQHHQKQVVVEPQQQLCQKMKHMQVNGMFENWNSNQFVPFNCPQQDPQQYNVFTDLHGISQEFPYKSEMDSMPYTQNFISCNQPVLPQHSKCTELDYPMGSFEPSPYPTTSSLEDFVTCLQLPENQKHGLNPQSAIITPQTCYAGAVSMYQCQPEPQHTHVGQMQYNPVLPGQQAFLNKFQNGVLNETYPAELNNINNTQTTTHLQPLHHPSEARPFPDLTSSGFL
test-method-notes: Agonist activity at AhR in human HepG2 cells assessed as induction of CYP1A1 activity at 3.2 nM using 7-ethoxyresorufin as substrate after 24 hrs by ethoxyresorufin-O-deethylase assay relative to 3-phenylbenzo[f]chromen-1-one
Assay type: cell-based
test-context: probe 7-ethoxyresorufin, read-out: FC
experimental-readout: fold induction at 24 h, 0.0032 µM
Answers are plain numbers.

Prompt: Which fold induction at 24 h, 0.0032 µM is listed for OCc1c2[nH]c3ccccc3c2cc2[nH]c3ccccc3c12 ?
Response: 12

====

target-of-assay: CYP1A1 (Homo sapiens)
test-method-notes: Agonist activity at AhR in human HepG2 cells assessed as induction of CYP1A1 activity at 80 nM using 7-ethoxyresorufin as substrate after 24 hrs by ethoxyresorufin-O-deethylase assay relative to DMSO
Assay type: cell-based
test-context: probe 7-ethoxyresorufin, read-out: FC
I'd be grateful if you could share measured fold induction at 24 h, 0.08 µM for these entries.
Answers are plain numbers.

Past entries and their recorded results:
CCn1c2ccccc2c2cc3[nH]c4ccccc4c3c(CO)c21 ... 31.8
CCn1c2ccccc2c2c(C=O)c3c(cc21)c1ccccc1n3C ... 25.1
Cn1c2ccccc2c2c(C=O)c3c(cc21)c1ccccc1n3C ... 39.4
OCc1c2c(cc3c4ccccc4n(Cc4ccccc4)c13)[nH]c1ccccc12 ... 3.6
Cn1c2ccccc2c2cc3c(c(C=O)c21)c1ccccc1n3Cc1ccccc1 ... 27.5
Cn1c2ccccc2c2cc3[nH]c4ccccc4c3c(CO)c21 ... 62.6
Cn1c2ccccc2c2cc3[nH]c4ccccc4c3c(C=O)c21 ... 82.4
OCc1c2[nH]c3ccccc3c2cc2[nH]c3ccccc3c12 ... 59.2

List the reported fold induction at 24 h, 0.08 µM of each molecule below.
1. O=c1cc(-c2ccccc2)oc2ccc3ccccc3c12
2. CCCn1c2ccccc2c2cc3[nH]c4ccccc4c3c(CO)c21
3. OCc1c2c(cc3c4ccccc4n(CC4CC4)c13)[nH]c1ccccc12

Response:
11.2
3.4
2.6

Prompt: // fetch CYP1A1 (Homo sapiens) fold induction at 24 h, 0.08 µM for CCCn1c2ccccc2c2c(C=O)c3c(cc21)c1ccccc1n3C
Response: 8.9
